Here's a roundup of pIC50 values tested on Renin (Homo sapiens, UniProt P00797), taken from various published works.
# log scale: pIC50 equals minus log10 of the concentration in mol/L

- smiles.input: "CC[C@@H](C[C@H](O)[C@H](CC1CCCCC1)NC(=O)[C@H](Cc1c[nH]cn1)NC(=O)[C@H](Cc1ccccc1)NC(=O)OC(C)(C)C)C(C)C"
  observed: 8.10
- smiles.input: "CC(C)C[C@H](O)[C@H](O)[C@H](CC1CCCCC1)NC(=O)[C@H](Cc1c[nH]cn1)NC(=O)[C@@](C)(N)Cc1ccccc1"
  observed: 8.00

Continue with the next molecule.
Provide pIC50, system Renin (Homo sapiens, UniProt P00797), entry CC(C)[C@@H](/C=C/C(=O)NCc1ccccn1)C[C@H](O)[C@H](CC1CCCCC1)NC(=O)[C@H](Cc1c[nH]cn1)NC(=O)[C@@H](CC(=O)C(C)(C)C)Cc1ccccc1
7.89

---

Here's a roundup of IC50 values tested on Renin (Homo sapiens, UniProt P00797), taken from various published works.
Checkbox rule: IC50 lower than 20 nM = condition met; IC50 not lower than 20 nM = condition not met.

Study these solved cases before continuing.
- compound: "CCOC(=O)NC1(C(=O)N[C@@H](Cc2c[nH]cn2)C(=O)N[C@@H](CC2CCCCC2)[C@@H](O)[C@@H](O)CC(C)C)Cc2ccccc2C1"
  label.class: "condition met"
- compound: "COCOC[C@H](NC(=O)c1cc2ccccc2[nH]1)C(=O)N[C@@H](CC1CCCCC1)[C@@H](O)[C@@H](O)CC(C)C"
  label.class: "condition not met"
- compound: "COc1ccccc1COCCCOc1ccc([C@H]2CCNC[C@@H]2OCc2ccc3c(c2)N(CCCO)CCC3)cc1"
  label.class: "condition met"
- compound: "C[C@@H]1CO[C@H]([C@H](O)[C@H](CC2CCCCC2)NC(=O)C(Cc2nccn2C(=O)OC(C)(C)C)N2CCN(S(=O)(=O)N3CCN(C)CC3)[C@H](Cc3ccccc3)C2=O)C1 (stereo partly shown)"
  label.class: "condition met"
- compound: "CC(C)C[C@H](NC(=O)C[C@H](O)[C@H](CC(C)C)NC(=O)[C@H](Cc1c[nH]cn1)NC(=O)C(Cc1ccccc1)SCc1ccccc1)C(=O)NCc1ccccc1 (stereo partly shown)"
  label.class: "condition not met"
- compound: "COC(=O)CC(Cc1cccc2ccccc12)C(=O)N[C@@H](Cc1c[nH]cn1)C(=O)N[C@@H](CC(C)C)[C@@H](O)CC(=O)NCCC(C)C (stereo partly shown)"
  label.class: "condition not met"
- compound: "CC(C)C[C@H](NC(=O)[C@H](Cc1c[nH]cn1)NC(=O)C(CC(=O)N(CCO)CCO)Cc1cccc2ccccc12)C(O)C(=O)OC(C)C (mixture of isomers)"
  label.class: "condition not met"
- compound: "CC(C)C[C@H](O)[C@H](O)[C@H](CC1CCCCC1)NC(=O)[C@H](Cc1cscn1)NC(=O)[C@@H](CC(=O)N(C)CCn1cccn1)Cc1ccccc1"
  label.class: "condition met"
- compound: "COC(=O)[C@@H]1CC(O)CN1C(=O)CC(Cc1cccc2ccccc12)C(=O)N[C@@H](Cc1c[nH]cn1)C(=O)N[C@@H](CC(C)C)C(O)C(=O)OC(C)C (stereo partly shown)"
  label.class: "condition not met"
- compound: "CC(C)C[C@H](NC(=O)[C@H](Cc1cnc[nH]1)NC(=O)C(CC(=O)NCCc1ccccc1)Cc1cccc2ccccc12)C(O)C(=O)NCc1ccccc1 (single isomer, unassigned)"
  label.class: "condition not met"

Does this compound meet the criterion IC50 < 20 nM? CC(C)C[C@H](O)[C@H](O)[C@H](CC1CCCCC1)NC(=O)[C@H](Cn1cccn1)NC(=O)[C@@H](CC(=O)N(C)CCn1ccnc1)Cc1ccccc1
condition met

Does this compound meet the criterion IC50 < 20 nM? COCCCN1CCCc2ccc(CO[C@H]3CNCC[C@@H]3c3ccc(OCCCOCc4ccccc4OC)cc3)cc21
condition met

Does this compound meet the criterion IC50 < 20 nM? COC(=O)CN(C)C(=O)CC(Cc1cccc2ccccc12)C(=O)N[C@@H](Cc1c[nH]cn1)C(=O)N[C@@H](CC(C)C)[C@@H](O)CC(=O)NCCC(C)C (stereo partly shown)
condition not met
